Molecular target: IGFR-1 (Homo sapiens)
Construct: Kinases are expressed as either kinase domains or full length constructs; made in house
Sequence (P08069 31-1367): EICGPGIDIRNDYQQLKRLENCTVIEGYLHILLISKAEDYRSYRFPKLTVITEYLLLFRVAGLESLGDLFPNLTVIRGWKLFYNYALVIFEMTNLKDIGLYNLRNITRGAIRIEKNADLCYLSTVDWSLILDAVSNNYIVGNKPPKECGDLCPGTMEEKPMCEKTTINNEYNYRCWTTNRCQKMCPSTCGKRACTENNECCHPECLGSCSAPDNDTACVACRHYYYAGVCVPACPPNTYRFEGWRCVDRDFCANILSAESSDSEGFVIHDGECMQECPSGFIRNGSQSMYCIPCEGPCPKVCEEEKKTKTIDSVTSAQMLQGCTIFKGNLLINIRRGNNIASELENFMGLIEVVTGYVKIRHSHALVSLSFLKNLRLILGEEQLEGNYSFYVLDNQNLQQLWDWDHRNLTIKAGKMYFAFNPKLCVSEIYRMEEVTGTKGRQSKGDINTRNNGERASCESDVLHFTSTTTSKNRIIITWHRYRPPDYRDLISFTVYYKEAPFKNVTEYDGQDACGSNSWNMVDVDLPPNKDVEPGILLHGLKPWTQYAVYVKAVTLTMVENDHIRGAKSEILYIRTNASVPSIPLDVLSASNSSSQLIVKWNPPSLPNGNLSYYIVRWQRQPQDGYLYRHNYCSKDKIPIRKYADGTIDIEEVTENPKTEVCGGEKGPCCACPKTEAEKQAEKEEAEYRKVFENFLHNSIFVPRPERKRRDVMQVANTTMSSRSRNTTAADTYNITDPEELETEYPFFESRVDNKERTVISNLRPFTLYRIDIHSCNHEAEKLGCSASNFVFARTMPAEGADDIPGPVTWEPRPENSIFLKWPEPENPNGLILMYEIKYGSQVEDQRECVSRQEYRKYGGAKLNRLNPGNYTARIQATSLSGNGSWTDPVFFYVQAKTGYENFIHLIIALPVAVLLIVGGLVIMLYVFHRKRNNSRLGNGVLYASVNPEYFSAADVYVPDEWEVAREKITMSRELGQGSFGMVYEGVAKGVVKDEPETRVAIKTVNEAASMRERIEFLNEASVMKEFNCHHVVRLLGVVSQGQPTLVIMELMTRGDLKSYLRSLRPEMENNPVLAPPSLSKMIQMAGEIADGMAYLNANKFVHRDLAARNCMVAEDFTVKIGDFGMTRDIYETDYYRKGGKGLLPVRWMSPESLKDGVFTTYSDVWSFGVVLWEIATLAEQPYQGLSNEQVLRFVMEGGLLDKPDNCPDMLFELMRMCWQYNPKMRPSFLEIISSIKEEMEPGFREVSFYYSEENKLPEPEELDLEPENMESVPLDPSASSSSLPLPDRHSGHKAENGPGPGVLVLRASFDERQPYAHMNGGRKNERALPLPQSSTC
Assay: Kinase inhibition assay (33P transfer), IGFR-1
Format: biochemical
Settings: Table 2, class symbols A-E
pIC50: −log10 of the molar value.
attribute.measured: pIC50

Illustrative cases are given below, each with its answer.
> print(dat)
                                        smi  attribute.measured    test.value
1  COC(=O)c1ccc(-c2cc(Nc3ncnc(NCc4cccs4)n3)[nH]n2)cc1               pIC50  4.96 to 5.07
2  CC(C)Nc1ncccc1-c1ncnc(Nc2cccc(CC(=O)O)c2)n1               pIC50        < 4.91
3  COc1cc(Nc2ncnc(-c3cccnc3Nc3cccc(C(C)=O)c3)n2)cc(OC)c1OC               pIC50        < 5.02

Consider now this further molecule.
Need pIC50 of COc1ccc(Nc2ncnc(Nc3ccc(F)c(F)c3)n2)cc1OC , thanks.
5.01 to 5.18

====

Molecular target: Zap-70 (Homo sapiens)
Construct: Kinases are expressed as either kinase domains or full length constructs; made in house
Sequence (P43403 whole entry, species assumed, the tested form may be a part): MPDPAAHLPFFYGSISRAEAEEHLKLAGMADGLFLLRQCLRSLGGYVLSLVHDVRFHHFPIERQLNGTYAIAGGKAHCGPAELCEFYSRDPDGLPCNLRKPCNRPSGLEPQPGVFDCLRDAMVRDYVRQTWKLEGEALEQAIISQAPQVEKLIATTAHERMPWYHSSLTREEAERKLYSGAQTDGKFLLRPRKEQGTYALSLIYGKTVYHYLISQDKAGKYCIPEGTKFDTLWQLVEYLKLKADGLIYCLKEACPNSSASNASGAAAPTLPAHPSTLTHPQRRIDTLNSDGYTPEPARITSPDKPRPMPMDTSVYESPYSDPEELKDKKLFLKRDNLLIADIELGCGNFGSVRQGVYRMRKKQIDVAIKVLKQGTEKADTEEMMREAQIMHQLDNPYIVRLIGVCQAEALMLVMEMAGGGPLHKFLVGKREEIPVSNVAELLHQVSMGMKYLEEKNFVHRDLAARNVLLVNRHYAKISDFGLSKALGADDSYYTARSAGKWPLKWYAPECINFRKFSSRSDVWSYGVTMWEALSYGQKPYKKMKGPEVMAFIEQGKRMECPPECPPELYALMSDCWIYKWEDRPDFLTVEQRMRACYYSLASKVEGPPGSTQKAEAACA
Assay: Kinase inhibition assay (33P transfer), Zap-70
Format: biochemical
Settings: Table 3; read-out: Zap-1
pIC50: −log10 of the molar value.
attribute.measured: pIC50

Examples with answers:
> print(dat)
                                        smi  attribute.measured  test.value
1  COc1cc(Nc2ncnc(Nc3ccc(Br)cc3F)n2)cc(OC)c1OC               pIC50      < 5.00
2     COc1cc(Nc2ncnc(N3CCCCC3)n2)cc(OC)c1OC               pIC50      < 4.89
3    COc1cc(Nc2ncnc(-c3ccccc3)n2)cc(OC)c1OC               pIC50      < 4.88

Which measured pIC50 value corresponds to COc1ccc(Nc2ncnc(N(CC(=O)OC(C)(C)C)c3ccc(Cl)cc3)n2)cc1OC ?
< 5.02

Looking for the measured pIC50 of Cc1cc(Br)ccc1Nc1ncnc(-n2cccc2)n1 , can you help?
< 4.87

I'd like to know its pIC50. The compound in question is COc1cc(C)c(Nc2ncnc(-c3cccs3)n2)cc1OC
< 4.86

Would you kindly share the measured pIC50 for COc1cc(Nc2ncnc(N(CC(=O)O)c3ccc4c(c3)OCO4)n2)cc(OC)c1OC ?
< 5.01

What pIC50 value was documented for this compound, COc1cc(Nc2ncnc(Nc3ccc(C(N)=O)cc3)n2)cc(OC)c1OC ?
< 4.94

====

Each entry below carries its reported IC50.
Target: EPHB4 (Homo sapiens, UniProt P54760)
Construct: Kinases are expressed as either kinase domains or full length constructs; made in house
Sequence (P54760 16-987, species assumed): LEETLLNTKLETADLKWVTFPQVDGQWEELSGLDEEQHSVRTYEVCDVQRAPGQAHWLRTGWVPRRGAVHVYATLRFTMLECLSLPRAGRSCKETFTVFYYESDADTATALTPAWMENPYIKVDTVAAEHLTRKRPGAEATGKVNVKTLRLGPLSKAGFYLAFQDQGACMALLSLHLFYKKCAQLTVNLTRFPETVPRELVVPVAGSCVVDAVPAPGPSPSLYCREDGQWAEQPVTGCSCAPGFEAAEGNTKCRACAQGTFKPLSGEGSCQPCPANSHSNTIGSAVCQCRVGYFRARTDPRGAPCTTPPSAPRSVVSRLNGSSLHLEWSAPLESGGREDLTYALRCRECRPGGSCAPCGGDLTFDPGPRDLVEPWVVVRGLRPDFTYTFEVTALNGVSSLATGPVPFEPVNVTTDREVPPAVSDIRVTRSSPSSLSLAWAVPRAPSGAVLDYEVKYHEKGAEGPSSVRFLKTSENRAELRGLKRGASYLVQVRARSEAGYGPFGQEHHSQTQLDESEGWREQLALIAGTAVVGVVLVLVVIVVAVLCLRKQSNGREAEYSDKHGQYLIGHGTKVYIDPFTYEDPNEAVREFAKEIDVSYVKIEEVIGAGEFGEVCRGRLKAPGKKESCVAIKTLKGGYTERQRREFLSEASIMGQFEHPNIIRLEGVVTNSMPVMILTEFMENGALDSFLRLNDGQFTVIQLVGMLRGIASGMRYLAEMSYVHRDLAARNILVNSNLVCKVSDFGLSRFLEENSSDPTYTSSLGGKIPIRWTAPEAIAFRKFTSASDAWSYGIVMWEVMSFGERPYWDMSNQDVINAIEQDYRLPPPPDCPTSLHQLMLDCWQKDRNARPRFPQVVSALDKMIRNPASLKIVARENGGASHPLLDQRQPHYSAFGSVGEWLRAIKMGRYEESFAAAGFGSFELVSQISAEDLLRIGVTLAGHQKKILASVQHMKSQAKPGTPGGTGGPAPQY
Test: Kinase inhibition assay (33P transfer), EPHB4
Type: biochemical
Details: read-out: EPHB4-1

> print(dat)
                                   compound  attribute.measured  test.value
1  COc1cccc(-c2ncnc(Nc3cc(OC)c(OC)c(OC)c3)n2)c1 [Compound 232]                IC50   > 12.2 µM

Record request: IC50 value, item COc1cc(Nc2ncnc(Nc3ccc(-c4ccccc4)cc3)n2)cc(OC)c1OC [Compound 100]
0.931 to 5.59 µM

Which IC50 is listed for COCCOc1ccc(Nc2ncnc(-n3c(N)nc4ccccc43)n2)cc1OC [Compound 287] ?
> 11 µM

Would you mind telling me what IC50 value was observed for COc1cc(Nc2ncnc(Nc3cccc(F)c3)n2)cc(OC)c1OC [Compound 304] ?
1.08 to 6.46 µM

Query: IC50; subject: COc1cc(Nc2ncnc(Nc3ccc(C(C)C)cc3)n2)cc(OC)c1OC [Compound 66]
8.85 to 11.4 µM

Quick one: IC50 of COc1cc(Nc2ncnc(Nc3cccc4cccnc34)n2)cc(OC)c1OC [Compound 97] ?
> 11.1 µM

Recorded IC50 for COc1cc(Nc2ncnc(-n3ccc4ccc(Cl)cc43)n2)cc(OC)c1OC [Compound 237] , please?
8.5 to 10.9 µM

Endpoint output: IC50 of COc1ccc(N(C)c2ncnc(Nc3cc(OC)c(OC)c(OC)c3)n2)cc1 [Compound 106] . Value?
1.01 to 6.04 µM

Consider the compound COc1cc(Nc2ncnc(Nc3ccc(Br)c(Cl)c3)n2)cc(OC)c1OC [Compound 936] and give its measured IC50.
< 0.857 µM

# get_value(readout='IC50', item= COc1cc(Nc2ncnc(-n3cc(CC(N)=O)c4ccccc43)n2)cc(OC)c1OC [Compound 353] )
> 10.4 µM

Reported IC50 for COc1cc(NC(=O)Nc2ncnc(Nc3cc(OC)c(OC)c(OC)c3)n2)cc(OC)c1 [Compound 22] : what is it?
> 9.86 µM

For the compound COc1cc(Nc2ncnc(Nc3ccc(NCc4ccccc4)cc3)n2)cc(OC)c1OC [Compound 93] , what IC50 is on record?
> 9.81 µM

Any idea what its IC50 is? The compound is COc1cc(Nc2ncnc(Nc3ccccc3F)n2)cc(OC)c1OC [Compound 65]
6.46 to 9.42 µM

Looking for the measured IC50 of COc1cc(Nc2ncnc(Nc3ccc(F)c(Cl)c3)n2)cc(OC)c1OC [Compound 61] , can you help?
< 0.986 µM

Given COc1ccc(Nc2ncnc(Nc3cc(OC)c(OC)c(OC)c3)n2)cc1 [Compound 89] , state its recorded IC50.
> 11.7 µM

So what does the record say about IC50 for COc1cc(Nc2ncnc(Nc3ccc(O)cc3)n2)cc(OC)c1OC [Compound 85] ?
1.08 to 6.5 µM

Returns the measured IC50 for the input compound. Input: COc1ccc(Nc2ncnc(Nc3ccccc3C)n2)cc1OC [Compound 111]
> 13.3 µM

Fill in: IC50 of COc1cc(Nc2ncnc(Nc3ccccc3)n2)cc(OC)c1OC [Compound 91] is ___
6.79 to 9.9 µM

Suppose we examine the compound COc1ccc(Nc2ccc(Nc3ncnc(Nc4cc(OC)c(OC)c(OC)c4)n3)cc2)cc1 [Compound 922] ; what IC50 value has been reported?
5.06 to 7.38 µM

Quick one: IC50 for COc1cc(Nc2ncnc(-n3c(Nc4ccccc4C)nc4ccccc43)n2)cc(OC)c1OC [Compound 384] ?
0.827 to 4.96 µM

What measured IC50 goes with COc1cc(Nc2ncnc(N(CC(=O)O)c3ccc4c(c3)OCO4)n2)cc(OC)c1OC [Compound 319] ?
> 9.88 µM

Record request: IC50 value, item COc1ccc(Nc2ncnc(N(C/C=C/c3ccccc3)c3ccc(Cl)cc3)n2)cc1OC [Compound 974]
> 9.49 µM

Tell me the measured IC50 of COc1cc(Nc2ncnc(Nc3[nH]ncc3-c3ccccc3)n2)cc(OC)c1OC [Compound 369] , please.
> 10.7 µM

====

Each entry below carries its recorded pIC50.
Target: Kdr (Homo sapiens)
Construct: Kinases are expressed as either kinase domains or full length constructs; made in house
Sequence (P35968 20-1356, species assumed): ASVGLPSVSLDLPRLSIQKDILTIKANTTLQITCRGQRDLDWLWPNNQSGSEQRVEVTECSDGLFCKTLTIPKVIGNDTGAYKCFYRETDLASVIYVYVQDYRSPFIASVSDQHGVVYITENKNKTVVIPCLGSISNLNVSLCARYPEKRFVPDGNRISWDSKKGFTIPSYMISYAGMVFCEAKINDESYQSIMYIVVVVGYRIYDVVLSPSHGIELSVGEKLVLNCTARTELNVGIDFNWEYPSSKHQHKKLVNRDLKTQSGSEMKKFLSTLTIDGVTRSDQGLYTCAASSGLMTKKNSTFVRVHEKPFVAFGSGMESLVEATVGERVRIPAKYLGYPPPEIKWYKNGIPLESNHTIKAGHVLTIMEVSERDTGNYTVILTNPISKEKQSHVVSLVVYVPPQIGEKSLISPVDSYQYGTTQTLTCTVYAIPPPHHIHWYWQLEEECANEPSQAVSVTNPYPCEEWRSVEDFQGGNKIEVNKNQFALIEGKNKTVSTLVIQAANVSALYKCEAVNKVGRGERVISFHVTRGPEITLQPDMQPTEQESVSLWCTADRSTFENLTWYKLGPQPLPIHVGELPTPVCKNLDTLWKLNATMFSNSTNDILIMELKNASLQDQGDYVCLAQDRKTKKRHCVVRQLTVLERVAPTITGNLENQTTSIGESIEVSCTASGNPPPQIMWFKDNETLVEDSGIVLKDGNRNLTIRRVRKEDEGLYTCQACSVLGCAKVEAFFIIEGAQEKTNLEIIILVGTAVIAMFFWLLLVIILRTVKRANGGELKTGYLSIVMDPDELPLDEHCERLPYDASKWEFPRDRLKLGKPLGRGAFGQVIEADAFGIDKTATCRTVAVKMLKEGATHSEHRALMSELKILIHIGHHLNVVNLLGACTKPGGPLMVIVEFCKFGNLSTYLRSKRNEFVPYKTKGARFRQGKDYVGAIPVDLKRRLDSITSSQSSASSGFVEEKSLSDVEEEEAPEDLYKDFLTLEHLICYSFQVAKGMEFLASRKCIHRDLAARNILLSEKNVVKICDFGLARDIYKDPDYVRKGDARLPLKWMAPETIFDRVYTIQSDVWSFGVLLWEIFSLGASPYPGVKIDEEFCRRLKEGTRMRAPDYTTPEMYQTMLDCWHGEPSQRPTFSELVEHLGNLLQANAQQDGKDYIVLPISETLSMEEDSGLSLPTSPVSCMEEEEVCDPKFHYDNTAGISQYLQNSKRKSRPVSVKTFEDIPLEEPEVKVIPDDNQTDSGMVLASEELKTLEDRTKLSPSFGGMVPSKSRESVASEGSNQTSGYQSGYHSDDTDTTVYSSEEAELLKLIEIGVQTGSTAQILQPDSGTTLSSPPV
Experiment: Kinase inhibition assay (33P transfer), Kdr
Format: biochemical
Details: Table 3, class symbols; read-out: KDR-1
pIC50: −log10 of the molar value.

Completed entries (count: 3):
> print(dat)
                                   molecule   system.under.test    test.value
1  c1ccc(Cn2ncc3cc(Nc4ncnc(Nc5ccc6ncsc6c5)n4)ccc32)cc1 [Compound 900]  Kdr (Homo sapiens)        > 6.05
2  COc1cc(Nc2ncnc(Nc3cc(-c4ccc(C(=O)N(C)C)cc4)n[nH]3)n2)cc(OC)c1OC [Compound 993]  Kdr (Homo sapiens)  5.31 to 6.09
3  COc1cc(Nc2ncnc(N3CCCc4cc(Cl)ccc43)n2)cc(OC)c1OC [Compound 639]  Kdr (Homo sapiens)        > 6.03

# returns recorded pIC50 (system: Kdr (Homo sapiens)) for Fc1ccc(Nc2ncnc(Nc3ccc4c(cnn4Cc4ccccc4)c3)n2)cc1F [Compound 902]
< 4.98

Enter reported pIC50 observed with Kdr (Homo sapiens) for COc1ccc(Nc2ncnc(Nc3cc(-c4ccc(C)cc4)n[nH]3)n2)c(C)c1 [Compound 1126]
5.04 to 5.21

Reported pIC50 for Kdr (Homo sapiens), given c1ccc(CNc2nc3ccccc3n2-c2ncnc(Nc3cccc(Cn4ccnn4)c3)n2)cc1 [Compound 965] ?
> 6.07

What measured pIC50 is associated with Cc1ccc2c(c1)CCCN2c1ncnc(Nc2c(C)ccc3ccccc23)n1 [Compound 854] on Kdr (Homo sapiens)?
< 4.93

Any idea what pIC50 came out for FC(F)(F)Sc1cccc(Nc2ncnc(Nc3cc(-c4ccco4)[nH]n3)n2)c1 [Compound 827] on Kdr (Homo sapiens)?
5.24 to 6.02

Tell me reported pIC50 for CC(C)Nc1ncccc1-c1ncnc(Nc2cccc(Cn3ccnn3)c2)n1 [Compound 1098] , tested with Kdr (Homo sapiens).
5.21 to 5.99

# returns recorded pIC50 (system: Kdr (Homo sapiens)) for COc1ccc(Nc2ncnc(N(C)c3cccc(C)c3)n2)cc1OC [Compound 800]
5.17 to 5.94

Checklist item: pIC50 tested on Kdr (Homo sapiens), entry COc1cc(Nc2ncnc(-c3cccnc3NC(C)C)n2)ccc1NC(=O)CCCN1CCNCC1 [Compound 1096] , value?
5.32 to 6.10

Request body: readout pIC50, system Kdr (Homo sapiens), query COC(=O)c1ccc(-c2cc(Nc3ncnc(NC4=NC(=O)CS4)n3)[nH]n2)cc1 [Compound 881] . Return the value.
5.23 to 6.01

Enter reported pIC50 observed with Kdr (Homo sapiens) for COc1ccc(Nc2ncnc(N(C)c3ccccc3Cl)n2)cc1OC [Compound 865]
5.03 to 5.19

Kindly state the measured pIC50 obtained for c1ccc(CNc2ncnc(Nc3cc(-c4ccco4)n[nH]3)n2)nc1 [Compound 995] with Kdr (Homo sapiens).
4.98 to 5.14

Request body: readout pIC50, system Kdr (Homo sapiens), query FC(F)(F)Oc1ccc(Nc2ncnc(Nc3ccc4c(cnn4Cc4ccccc4)c3)n2)cc1 [Compound 906] . Return the value.
5.30 to 6.08
